- Tested on: K562
- test-description: NCI tumour cell line growth inhibition, 48 h
The source made the active and inactive calls. No stated cut-off is given here; in the data, active = GI50 up to about 1.1 µM and inactive = higher.
Response enum: active, inactive

A selection of reference data follows.
Cc1ccccc1NC(=O)C(=O)C(C#N)c1ccccc1C (stereo not given)	inactive
Cc1ccc(S(=O)(=O)N2CCSCCSCCN(S(=O)(=O)c3ccc(C)cc3)CCN(S(=O)(=O)c3ccc(C)cc3)CC2)cc1	inactive
NC1Cc2ccccc2OC1=O (stereo not given)	inactive
CCOC(=O)Nn1cnnc1C	inactive
C[C@H]1CC[C@@H]2[C@@H](C)C[C@H]3[C@@H]4C(C)(C)OC(=O)[C@]4(C)C(=O)[C@@]23C1=O	inactive
Cn1cc(C(=O)C2CCCCC2)ccc1=O	inactive

Ask: Check the results log: what was the call for `COC(=O)C1=C(C)N2[C@H](C(=O)O)CS[C@@]2(C)[C@H](C(=O)OC)[C@H]1c1cccc([N+](=O)[O-])c1` ?
Result: inactive

Ask: Tell me the assay call for `COC(=O)c1c2c(cc3c1CC1(C3)Cc3cc4c(c(C(=O)OC)c3C1)CCC4)CCC2` please.
Result: inactive

Ask: Per the records of this test, what outcome belongs to `Cc1cn(CC(=S)NCCc2c[nH]c3ccccc23)c(=O)[nH]c1=O` ?
Result: inactive

Ask: Field: outcome | Entry: CC[C@@]1(O)C(=O)OCc2c1cc1n(c2=O)Cc2c-1nc1ccccc1c2/C=N\NC(=O)C(N)CC(C)C (stereo not given in full)
Result: active

----------
- Test system: SK-MEL-2
- test-description: NCI tumour cell line growth inhibition, 48 h
Calls of active or inactive are those of the source. Rule as the data show it: active = GI50 up to about 1.1 µM and inactive = higher.
# reported GI50; entries follow

Use these answered entries as a reference point.
FC(F)(F)C1(Br)C(c2ccccc2)=C1c1ccccc1	15.9 µM (inactive)
C[C@@H]1OC(=O)C[C@H]2CC(=O)N(CCC3CN(C(=O)OCc4ccccc4)c4ccccc43)C[C@@H]21 (stereo not given in full)	> 100 µM (inactive)
CN(C)C(=S)/N=c1\ss/c(=N\C(=S)N(C)C)n1-c1ccc(Cl)cc1	> 100 µM (inactive)
COc1cc(S(=O)(=O)Nc2ccc(-c3csc(/N=C\C=C\c4ccccc4)n3)cc2)ccc1Cl	26 µM (inactive)
NC(C(=O)O)c1cc(O)no1 (stereo not given)	> 100 µM (inactive)

Ask: Request the reported GI50 associated with `O=c1c2cc(Br)ccc2oc2nc3n(c(=O)c12)CCCS3`
Result: > 100 µM (inactive)

Ask: Return reported GI50; argument: C=C1C(=O)OC2/C=C(\C=O)CC/C=C(\C)C(O)C[C@@H]12 (stereo not given in full)
Result: 10.5 µM (inactive)

Ask: Can you look up the measured GI50 of `CC(=O)Nc1c(S(=O)(=O)c2ccccc2)c(C)c(C)n1CCN(C)C` for me?
Result: > 100 µM (inactive)

Ask: // returns reported GI50 for input `O=c1cc(-c2ccc(Cl)cc2)oc2cc(OCCCOc3ccc4c(=O)cc(-c5ccc(Cl)cc5)oc4c3)ccc12`
Result: > 100 µM (inactive)

Ask: Which measured GI50 value corresponds to CC(/C=C/NNC1=NN=C(c2ccccc2)C(c2ccccc2)N1)Sc1ccccc1N (stereo not given) ?
Result: 7.29 µM (inactive)

----------
- Test system: SF-295
- test-description: NCI tumour cell line growth inhibition, 48 h
The source made the active and inactive calls. Cut-off read from the data, not from the text of the source: active = GI50 up to about 1.1 µM and inactive = higher.
Write down one outcome, taken from True (active), False (inactive)

The examples below pair each entry with its known result.
NS(=O)(=O)c1nnc(NS(=O)(=O)c2cccc3cccnc23)s1	False
c1ccc(CN2CCC3(CC2)SSC2(CCN(Cc4ccccc4)CC2)S3)cc1	False

Kindly review the next compound as well.
Ask: Can you look up the reported call for `O=c1c2cc(Br)ccc2oc2nc3n(c(=O)c12)CCCS3` for me?
Result: False
